biological target: T1, mouse ACVR2A (mouse, UniProt P27038 20-135, limits assumed); experiment: ELISA; further: test concentration or dose not given here
T1 construct: coated antigen of the initial ELISA
T1 sequence (P27038 20-135 limits assumed): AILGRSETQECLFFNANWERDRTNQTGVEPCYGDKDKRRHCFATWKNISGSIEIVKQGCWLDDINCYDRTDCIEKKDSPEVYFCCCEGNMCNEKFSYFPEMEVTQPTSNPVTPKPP
Recorded optical density by entry
Field format: number, assumed OD, no unit text.

Please review the following examples before continuing.
[
  {
    "binder": "375_E02 (antibody, V domains shown, Group III) VH: EVQLLESGGGLVQPGGSLRLSCAASGFTFSDYSMNWVRQAPGKGLEWVAGINYNGGYTSYADSVKGRFTISRDNSKNTLYLQMNSLRAEDTAVYYCARGANWHDTALDYWGQGTLVTVSS VL: DIQMTQSPSSLSASVGDRVTITCRASQSILTYLNWYQQKPGKAPKLLIYAATSRASGVPSRFSGSGSGTDFTLTISSLQPEDFATYYCQQSYSSPLTFGGGTKVEIK",
    "experimental endpoint": "optical density",
    "numeric value": 3.69
  },
  {
    "binder": "367_C10 (antibody, V domains shown, Group III) VH: EVQLLESGGGLVQPGGSLRLSCAASGFTFDSYSMNWVRQAPGKGLEWVSGINYNGGYTSYADSVKGRFTISRDNSKNTLYLQMNSLRAEDTAVYYCARGANWHDTALDYWGQGTLVTVSS VL: DIQMTQSPSSLSASVGDRVTITCRASQSIVSYVNWYQQKPGKAPKLLIYAVTSRASGVPSRFSGSGSGTDFTLTISSLQPEDFATYYCQQSYETPLTFGGGTKVEIK",
    "experimental endpoint": "optical density",
    "numeric value": 2.61
  }
]

Looking up 374_B10 (antibody, V domains shown, Group III) VH: EVQLLESGGGLVQPGGSLRLSCAASGFTFSSYSMNWVRQAPGKGLEWVSSINYNSGYTSYADSVKGRFTISRDNSKNTLYLQMNSLRAEDTAVYYCARGANWHDTHLDYWGQGTLVTVSS VL: DIQMTQSPSSLSASVGDRVTITCRASQSILTYVNWYQQKPGKAPKLVIYAATSLASGVPSRFSGSGSGTDFTLTISSLQPEDFATYYCQQSYDTPLTFGGGTKVEIK , I see its optical density listed as 3.69
